target: Protein deacetylase HDAC6 (Homo sapiens); experiment: Displacement of N-terminal FITC-labeled RLRGG from N-terminal AviTag/C-terminal His6-tagged HDAC6 ZnF-UBD (unknown origin) expressed in Escherichia coli BL21 (DE3) after 10 mins by fluorescence polarization assay; conditions: read-out: IC50
Sequence (Q9UBN7 whole entry): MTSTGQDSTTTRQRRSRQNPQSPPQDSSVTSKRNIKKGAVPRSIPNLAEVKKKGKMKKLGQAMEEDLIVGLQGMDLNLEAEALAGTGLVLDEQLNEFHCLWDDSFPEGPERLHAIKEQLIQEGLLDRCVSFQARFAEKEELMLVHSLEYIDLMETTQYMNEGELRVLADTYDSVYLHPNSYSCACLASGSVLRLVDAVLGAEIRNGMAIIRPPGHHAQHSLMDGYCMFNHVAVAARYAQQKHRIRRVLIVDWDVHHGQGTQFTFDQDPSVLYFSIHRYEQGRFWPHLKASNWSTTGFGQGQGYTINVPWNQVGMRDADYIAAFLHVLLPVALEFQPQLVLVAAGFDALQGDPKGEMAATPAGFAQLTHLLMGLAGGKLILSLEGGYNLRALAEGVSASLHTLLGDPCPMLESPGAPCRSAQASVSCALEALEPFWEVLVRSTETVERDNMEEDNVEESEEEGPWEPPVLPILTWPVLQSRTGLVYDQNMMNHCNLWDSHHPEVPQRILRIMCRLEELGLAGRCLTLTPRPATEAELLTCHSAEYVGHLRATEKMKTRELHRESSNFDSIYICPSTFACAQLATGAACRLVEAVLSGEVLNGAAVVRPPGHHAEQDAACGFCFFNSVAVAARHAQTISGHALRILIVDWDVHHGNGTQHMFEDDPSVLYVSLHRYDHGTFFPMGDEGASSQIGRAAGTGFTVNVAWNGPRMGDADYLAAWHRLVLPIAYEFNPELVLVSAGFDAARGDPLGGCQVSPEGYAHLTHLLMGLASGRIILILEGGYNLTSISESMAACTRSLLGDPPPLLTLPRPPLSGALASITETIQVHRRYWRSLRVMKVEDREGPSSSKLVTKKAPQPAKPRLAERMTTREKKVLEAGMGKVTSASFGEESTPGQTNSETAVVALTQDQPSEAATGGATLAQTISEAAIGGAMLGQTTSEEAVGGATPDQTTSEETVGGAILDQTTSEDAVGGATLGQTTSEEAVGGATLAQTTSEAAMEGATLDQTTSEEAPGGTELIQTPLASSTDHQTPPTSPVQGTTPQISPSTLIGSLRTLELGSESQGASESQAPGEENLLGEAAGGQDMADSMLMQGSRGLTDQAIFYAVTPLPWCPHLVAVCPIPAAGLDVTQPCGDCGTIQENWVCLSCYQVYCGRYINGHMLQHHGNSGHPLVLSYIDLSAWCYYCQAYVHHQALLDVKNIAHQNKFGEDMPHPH
TEST READOUT: IC50 (µM)

In the examples that follow, each entry is paired with its recorded IC50.
O=C(O)Cn1cnc2ccc(Br)cc2c1=O; 200
O=C(O)CCn1nnc2ccccc2c1=O; 240
O=C(O)CCc1nc2ccccc2c2nc(=O)c(Cc3ccccc3)nn12; 25

[I] O=C(O)Cc1nc2ccccc2s1
[II] COc1cc2ncn(CC(=O)O)c(=O)c2cc1OC
[III] Cc1cc(C)c2c(n1)sc1c(=O)n(CC(=O)O)cnc12
[Q] Order the records by IC50, with each subsequent value no larger than the one before. Returns: the labels listed in the requested order.
[A] I, III, II

Data origin: ChEMBL document CHEMBL4184329
